Below is a list of entries, each paired with its recorded pIC50 value.
experiment: In vitro binding affinity against synaptic membrane from rat brain using [3H]-[…] AMPA as the radioligand
pIC50: −log10 of the molar value.

{"columns": ["compound", "pIC50"],
 "data": [
  ["N[C@H](CCC(=O)O)C(=O)O [D-GLUTAMATE]", 4.33],
  ["N[C@@H](Cc1onc(O)c1Br)C(=O)O", 6.47]
]}

* * *

biological target: Glutamate receptor ionotropic, kainate; assay: In vitro binding affinity against synaptic membrane from rat brain using [3H]KAIN as the radioligand; type: tissue-based
measuredEndpoint: IC50

{"columns": ["molecule", "testResult"],
 "data": [
  ["N[C@@H](Cc1onc(O)c1Br)C(=O)O", "> 100 µM"]
]}
